Taken from patent US9550793B2.

target: hDGAT1 (Homo sapiens, UniProt O75907); construct: endogenous in cells; experiment: Cell based hDGAT1 inhibitory activity in HEK293H cells (13C-oleic acid to triolein, LC-MS)
Sequence (O75907 whole entry): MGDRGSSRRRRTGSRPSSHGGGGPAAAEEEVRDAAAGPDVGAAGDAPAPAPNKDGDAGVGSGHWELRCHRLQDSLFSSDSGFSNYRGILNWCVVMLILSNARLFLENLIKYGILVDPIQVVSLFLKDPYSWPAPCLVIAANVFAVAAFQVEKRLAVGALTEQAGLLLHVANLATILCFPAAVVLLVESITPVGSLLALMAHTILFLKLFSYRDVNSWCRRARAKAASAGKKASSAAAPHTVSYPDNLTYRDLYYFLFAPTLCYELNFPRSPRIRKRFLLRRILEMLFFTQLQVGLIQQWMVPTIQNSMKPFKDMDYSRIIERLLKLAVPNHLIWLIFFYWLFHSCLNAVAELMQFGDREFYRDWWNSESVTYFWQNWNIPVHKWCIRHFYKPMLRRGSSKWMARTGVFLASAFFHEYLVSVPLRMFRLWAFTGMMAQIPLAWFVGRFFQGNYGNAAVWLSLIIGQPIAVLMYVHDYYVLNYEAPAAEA
property.measured: IC50 (µM)

O=C(Nc1ccc(N2CCC3(CC2)CC(O)C3)nc1)c1nnc(Nc2ccc(OCC(F)(F)F)nc2)o1 [Example D6] | 0.0042
O=C(Nc1ccc(N2CCC3(CC2)CC3C(=O)O)nc1)c1nnc(Nc2ccc(F)cc2)o1 (stereo not drawn) [Example B18] | 0.054
O=C(Nc1ccc(N2CCC3(CC2)CC(CO)C3)nc1)c1nnc(Nc2ccc(F)c(F)c2)o1 [Example E1] | 0.01
O=C(Nc1ccc(N2C3CCC2CC2(C3)CC2C(=O)O)nc1)c1nnc(Nc2ccc(F)c(F)c2)o1 (stereo not drawn) [Example B30] | 0.45
O=C(O)CC1CC2(CCC(c3ccc(NC(=O)c4nnc(Nc5ccc(F)c(F)c5)o4)cc3)CC2)C1 (stereo not drawn) [Example B8] | 0.021
O=C(O)CC1CCC2(CC1)CCC(c1ccc(NC(=O)c3nnc(Nc4ccccc4)o3)cc1)CC2 (stereo not drawn) [Example B4] | 0.016
O=C(O)CC1CCC2(CC1)CCC(c1ccc(NC(=O)c3nnc(Nc4ccc(F)c(F)c4)o3)cn1)CC2 (stereo not drawn) [Example B1] | 0.0176
O=C(O)CC1CC2(CCN(c3ccc(NC(=O)c4nnc(Nc5ccccc5)o4)cn3)CC2)C1 [Example B11] | 0.006
O=C(Nc1ccc(N2CCCC3(CC3C(=O)O)C2)nc1)c1nnc(Nc2ccc(F)c(F)c2)o1 (stereo not drawn) [Example B22] | 0.465
O=C(Nc1ccc(N2CCC3(CC2)CC(C(=O)O)C3)nc1)c1nnc(Nc2ccc(OCC(F)(F)F)nc2)o1 [Example B13] | 0.047
O=C(Nc1ccc(N2CCC3(CC2)CC3C(=O)O)nc1)c1nnc(Nc2ccc(OCC(F)(F)F)nc2)o1 (stereo not drawn) [Example B21] | 0.064
O=C(Nc1ccc(N2CCC3(CC2)CC(C(=O)N2CC(O)C2)C3)nc1)c1nnc(Nc2ccc(F)c(F)c2)o1 [Example C8] | 0.011
CC1CC2(CCN(c3ccc(NC(=O)c4nnc(Nc5ccc(F)c(F)c5)o4)cn3)CC2)C1 [Example D3] | 0.032
CC1CC2(CCN(c3ccc(NC(=O)c4nnc(Nc5ccc(OCC(F)(F)F)nc5)o4)cn3)CC2)C1 [Example D4] | 0.026
O=C(Nc1ccc([C@H]2CC[C@@]3(CC2)CC3C(=O)O)nc1)c1nnc(Nc2ccc(F)c(F)c2)o1 (stereo partly drawn) [Example B25] | 0.02
